The measurements presented in this section are drawn from patent US12502380B2.

# TEST SYSTEM: Human MrgprX2 (Homo sapiens, UniProt Q96LB1)
# Construct: expressed in transfected cells
# Sequence (Q96LB1 1-330): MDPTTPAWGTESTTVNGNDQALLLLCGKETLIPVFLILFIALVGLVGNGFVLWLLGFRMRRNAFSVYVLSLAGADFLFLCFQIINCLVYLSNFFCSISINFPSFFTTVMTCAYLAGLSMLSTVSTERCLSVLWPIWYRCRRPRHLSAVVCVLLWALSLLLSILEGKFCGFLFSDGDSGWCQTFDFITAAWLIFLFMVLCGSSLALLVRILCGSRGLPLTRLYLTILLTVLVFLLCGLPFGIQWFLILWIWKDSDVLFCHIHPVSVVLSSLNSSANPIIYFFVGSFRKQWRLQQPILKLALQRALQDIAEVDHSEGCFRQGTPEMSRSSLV
# METHOD SUMMARY: Human MrgprX2 antagonist FLIPR intracellular calcium mobilization assay
# Type: cell-based
# MEASUREMENT CONTEXT: antagonist activity, recombinant hMrgpMRGPRX2 expressing cells, read-out: Human MrgprX2 Antagonist pIC50 (converted)
Response field label takes satisfied when IC50 is strictly below 2000 nM and not satisfied in all other cases.

COMPOUND	QUALITATIVE LABEL
CCN(C[C@H](C)O)C(=O)Nc1ncc(Oc2cc(C)cc(C#N)c2)s1	satisfied
CCN(C[C@@H](C)O)C(=O)Nc1ncc(Cc2cccc(F)c2)s1	satisfied
CCN(C[C@H](C)O)C(=O)Nc1ncc(Oc2ccc(C#N)nc2)s1	satisfied
C[C@H](O)CN(C)C(=O)Nc1ncc(Cc2ccc(C#N)cc2)s1	not satisfied
NC(=O)[C@@H]1CCCN1C(=O)Nc1ncc(Cc2cccc(F)c2)s1	not satisfied
CCN(C[C@H](C)O)C(=O)Nc1ncc(Oc2ccc(F)nc2)s1	satisfied

Could you please tell me whether IC50 recorded for CC(C)C(=O)Nc1ncc(C(C)c2ccccc2)s1 (stereo not shown) is less than 2000 nM?
satisfied

Could you please tell me whether IC50 recorded for `C[C@H](O)CN(C)C(=O)Nc1ncc(Oc2cccc(F)c2)s1` is less than 2000 nM?
satisfied

Could you please tell me whether IC50 recorded for `Cc1cccc(Cc2cnc(NC(=O)C3(C)CCOCC3)s2)c1` is less than 2000 nM?
satisfied

Could you please tell me whether IC50 recorded for `CCN(C[C@@H](C)O)C(=O)Nc1ncc(Oc2ccc(C#N)cc2)s1` is less than 2000 nM?
satisfied

Could you please tell me whether IC50 recorded for `CC(C)NC(=O)c1cc(Cc2cc(F)cc(F)c2)on1` is less than 2000 nM?
not satisfied

Could you please tell me whether IC50 recorded for `C[C@H](O)CN(C)C(=O)Nc1ncc(Oc2ccc(F)cc2C#N)s1` is less than 2000 nM?
not satisfied

Could you please tell me whether IC50 recorded for `CN(CCO)C(=O)Nc1ncc(Oc2ccc(F)cc2)s1` is less than 2000 nM?
satisfied

Could you please tell me whether IC50 recorded for `CC[C@H](C(=O)Nc1ncc(Cc2cccc(F)c2)s1)N(C)S(N)(=O)=O` is less than 2000 nM?
satisfied

Could you please tell me whether IC50 recorded for `CC(C)CN(C)C(=O)Nc1ncc(Cc2cccc(F)c2)s1` is less than 2000 nM?
satisfied

Could you please tell me whether IC50 recorded for CC1(C(=O)Nc2ncc(Oc3cccc(F)c3)s2)CCOC1 (stereo not shown) is less than 2000 nM?
satisfied
